Ref: ChEMBL document CHEMBL4130397

Tested on: Human immunodeficiency virus 1
Experiment: Antiviral activity against ENV pseudotyped CCR5-tropic HIV1 isolate YU2 infected in human TZM-bl cells after 24 hrs by luciferase reporter gene assay
Format: functional, organism-based
Conditions: Human immunodeficiency virus 1, isolate YU2, TZM-bl
PARAMETER_MEASURED: IC50 (µM)
Supply the numeric figure in µM, leaving out any unit text.

Guide cases for IC50, answers given:
| CHEMICAL_SMILES | TEST_TARGET | PARAMETER_MEASURED | VALUE_MEASURED |
| --- | --- | --- | --- |
| O[C@H](C1=NC[C@H](c2c[nH]c3cc(Br)ccc23)N1)c1c[nH]c2cc(Br)ccc12 | Human immunodeficiency virus 1 | IC50 | 3.5 |
| O=C(C1=NC[C@H](c2c[nH]c3cc(Br)ccc23)N1)c1c[nH]c2cc(Br)ccc12 | Human immunodeficiency virus 1 | IC50 | 9.5 |

Query molecule follows.
What does the data say about its IC50? Entry: Brc1ccc2c(C(C3=NC[C@H](c4c[nH]c5cc(Br)ccc45)N3)c3c[nH]c4cc(Br)ccc34)c[nH]c2c1
3.9

* * *

As shown below, each of these compounds has a reported MIC value.
Test system: Staphylococcus aureus
Experiment: Antibacterial activity against Staphylococcus aureus ATCC 29213 by CLSI method
Assay type: functional
Kindly answer with a numeric value in µg/mL, unit omitted.

Look over these answered cases.
| COMPOUND | PARAMETER_MEASURED | VALUE_MEASURED |
| --- | --- | --- |
| Brc1ccc2c(C(C3=NC[C@H](c4c[nH]c5cc(Br)ccc45)N3)c3c[nH]c4cc(Br)ccc34)c[nH]c2c1 | MIC | 1.2 |
| O=C(C1=NC[C@H](c2c[nH]c3cc(Br)ccc23)N1)c1c[nH]c2cc(Br)ccc12 | MIC | 1.1 |
| Cc1onc(-c2ccccc2)c1C(=O)N[C@@H]1C(=O)N2[C@@H]1SC(C)(C)[C@@H]2C(=O)O [OXACILLIN] | MIC | 0.25 |

Now turn to the next compound.
Fill in: MIC of O[C@H](C1=NC[C@H](c2c[nH]c3cc(Br)ccc23)N1)c1c[nH]c2cc(Br)ccc12 is ___
3.7

* * *

System: Human immunodeficiency virus 1
Assay: Antiviral activity against ENV pseudotyped CXCR4-tropic HIV1 HxB2 infected in human TZM-bl cells after 24 hrs by luciferase reporter gene assay
Assay type: functional, organism-based
Conditions: Human immunodeficiency virus 1, M:B_HXB2R
PARAMETER_MEASURED: pIC50
Expect pIC50 as a plain number equal to -log10 of the molar concentration.

| CHEMICAL_SMILES | pIC50 |
| --- | --- |
| Brc1ccc2c(C(C3=NC[C@H](c4c[nH]c5cc(Br)ccc45)N3)c3c[nH]c4cc(Br)ccc34)c[nH]c2c1 | 5.57 |

Consider the compound O=C(C1=NC[C@H](c2c[nH]c3cc(Br)ccc23)N1)c1c[nH]c2cc(Br)ccc12 and give its measured pIC50.
4.92

Further, for O[C@H](C1=NC[C@H](c2c[nH]c3cc(Br)ccc23)N1)c1c[nH]c2cc(Br)ccc12 ?
5.35
